- System: DCAMKL3;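 also: KINOMEscan kinase panel screen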
- Construct: gene DCLK3
- Measurement parameters: concentration: 1 μM, replicates: in singlicate; n = 1
Endpoint: %Inh (%)
Give bare numbers, in %.

Solved entries:
Enquiry: Determine from records and report %Inh for Cc1ccc(C)c(NC(=O)NCCNc2ccnc(Nc3ccc(F)cc3)n2)c1
Return: 0

Enquiry: Determine from records and report %Inh for CS(=O)(=O)CCNCc1ccc(-c2ccc3ncnc(Nc4ccc(OCc5ccccc5)c(Cl)c4)c3c2)o1.Cl
Return: 4

Enquiry: Determine from records and report %Inh for Cn1ccc2ncnc(Nc3ccc(Oc4cccc(Cl)c4)c(Cl)c3)c21
Return: 0

Enquiry: Determine from records and report %Inh for O=C(c1ccc(-c2cc(-c3c[nH]nc3-c3ccccn3)ccn2)cc1)N1CCCC1
Return: 0

Next molecule, %Inh to be filled in.
Enquiry: Determine from records and report %Inh for Clc1ccc(-c2cc(-c3c[nH]nc3-c3ccccn3)ccn2)cc1
Return: 0
